// data source = patent US20250002564A1

target: T1, SARS-CoV-2 receptor binding domain (RBD), wild type, His-tagged (SARS-CoV-2, UniProt P0DTC2 319-541); assay: method and format not given
T1 construct: domain: RBD; also called His-tagged RBD; BEI NR52309
For each record, write down the corresponding Kd.
Give your result in nM as a bare value.

What does the record list as Kd for mAb 108 (antibody, V domains shown) VH: QVQLVQSGAEVKKPGASVKVSCKASGYIFSRYAIHWVRQAPGQGLEWMGWMNPISGNTDYAPNFQGRVTMTRDTSTSTVYMELSSLRSEDTAVYYCAKDGSQLAYLVEYFQHWGQGTLVTVSS VL: DIQMTQSPSSLSASVGDRVTITCRASQVITNNLAWYQQKPGKAPKLLIYDASTLETGVPSRFSGSGSGTDFTLTISSLQPEDFATYYCQQSYTFPYTFGQGTKVEIKR ? 72

What does the record list as Kd for mAb 82 (antibody, V domains shown, also called IgG 82; Antibody 82) VH: QVQLVQSGAEVKKPGASVKVSCKASGGSFSTSAFYWVRQAPGQGLEWMGWINPYTGGTNYAQKFQGRVTMTRDTSTSTVYMELSSLRSEDTAVYYCARSRALYGSGSYFDYWGQGTLVTVSS VL: DIQMTQSPSSLSASVGDRVTITCRASQVISNYLAWYQQKPGKAPKLLIYDASNLETGVPSRFSGSGSGTDFTLTISSLQPEDFATYYCQQSFSPPPTFGQGTRLEIKR ? 206

What does the record list as Kd for mAb 178 (antibody, V domains shown, also called IgG 178; Antibody 178) VH: QVQLVQSGAEVKKPGASVKVSCKASGYTFTDYHMHWVRQAPGQGLEWMGWINPNSGGTNYAQKFQGRVTMTRDTSTSTVYMELSSLRSEDTAVYYCARDISSWYEITKFDPWGQGTLVTVSS VL: EIVMTQSPATLSVSPGERATLSCKASQSVSGTYLAWYQQKPGQAPRLLIYGASTRATGIPARFSGSGSGTEFTLTISSLQSEDFAVYYCLQTHSYPPTFGQGTKVEIKR ? 72

What does the record list as Kd for mAb 324 (antibody, V domains shown, also called IgG 324; Antibody 324) VH: QVQLVQSGAEVKKPGASVKVSCKASGGTFNNYGISWVRQAPGQGLEWMGWMNPNSGNTGYAQKFQGRVTMTRDTSTSTVYMELSSLRSEDTAVYYCARVGDYGDYIVSPFDLWGRGTLVTVSS VL: DIQMTQSPSSLSASVGDRVTITCRASQSITTYLNWYQQKPGKAPKLLIYDASNLETGVPSRFSGSGSGTDFTLTISSLQPEDFATYYCQQSYSTPPTFGQGTKVEIKR ? 111
